study system: SMARCA4 (Homo sapiens, UniProt P51532)
Construct: SMARCA2/SMARCA4 protein degradation selectivity in MV4-11 cells; endogenous in cells; host or cells: MV4-11
Sequence (P51532 whole entry): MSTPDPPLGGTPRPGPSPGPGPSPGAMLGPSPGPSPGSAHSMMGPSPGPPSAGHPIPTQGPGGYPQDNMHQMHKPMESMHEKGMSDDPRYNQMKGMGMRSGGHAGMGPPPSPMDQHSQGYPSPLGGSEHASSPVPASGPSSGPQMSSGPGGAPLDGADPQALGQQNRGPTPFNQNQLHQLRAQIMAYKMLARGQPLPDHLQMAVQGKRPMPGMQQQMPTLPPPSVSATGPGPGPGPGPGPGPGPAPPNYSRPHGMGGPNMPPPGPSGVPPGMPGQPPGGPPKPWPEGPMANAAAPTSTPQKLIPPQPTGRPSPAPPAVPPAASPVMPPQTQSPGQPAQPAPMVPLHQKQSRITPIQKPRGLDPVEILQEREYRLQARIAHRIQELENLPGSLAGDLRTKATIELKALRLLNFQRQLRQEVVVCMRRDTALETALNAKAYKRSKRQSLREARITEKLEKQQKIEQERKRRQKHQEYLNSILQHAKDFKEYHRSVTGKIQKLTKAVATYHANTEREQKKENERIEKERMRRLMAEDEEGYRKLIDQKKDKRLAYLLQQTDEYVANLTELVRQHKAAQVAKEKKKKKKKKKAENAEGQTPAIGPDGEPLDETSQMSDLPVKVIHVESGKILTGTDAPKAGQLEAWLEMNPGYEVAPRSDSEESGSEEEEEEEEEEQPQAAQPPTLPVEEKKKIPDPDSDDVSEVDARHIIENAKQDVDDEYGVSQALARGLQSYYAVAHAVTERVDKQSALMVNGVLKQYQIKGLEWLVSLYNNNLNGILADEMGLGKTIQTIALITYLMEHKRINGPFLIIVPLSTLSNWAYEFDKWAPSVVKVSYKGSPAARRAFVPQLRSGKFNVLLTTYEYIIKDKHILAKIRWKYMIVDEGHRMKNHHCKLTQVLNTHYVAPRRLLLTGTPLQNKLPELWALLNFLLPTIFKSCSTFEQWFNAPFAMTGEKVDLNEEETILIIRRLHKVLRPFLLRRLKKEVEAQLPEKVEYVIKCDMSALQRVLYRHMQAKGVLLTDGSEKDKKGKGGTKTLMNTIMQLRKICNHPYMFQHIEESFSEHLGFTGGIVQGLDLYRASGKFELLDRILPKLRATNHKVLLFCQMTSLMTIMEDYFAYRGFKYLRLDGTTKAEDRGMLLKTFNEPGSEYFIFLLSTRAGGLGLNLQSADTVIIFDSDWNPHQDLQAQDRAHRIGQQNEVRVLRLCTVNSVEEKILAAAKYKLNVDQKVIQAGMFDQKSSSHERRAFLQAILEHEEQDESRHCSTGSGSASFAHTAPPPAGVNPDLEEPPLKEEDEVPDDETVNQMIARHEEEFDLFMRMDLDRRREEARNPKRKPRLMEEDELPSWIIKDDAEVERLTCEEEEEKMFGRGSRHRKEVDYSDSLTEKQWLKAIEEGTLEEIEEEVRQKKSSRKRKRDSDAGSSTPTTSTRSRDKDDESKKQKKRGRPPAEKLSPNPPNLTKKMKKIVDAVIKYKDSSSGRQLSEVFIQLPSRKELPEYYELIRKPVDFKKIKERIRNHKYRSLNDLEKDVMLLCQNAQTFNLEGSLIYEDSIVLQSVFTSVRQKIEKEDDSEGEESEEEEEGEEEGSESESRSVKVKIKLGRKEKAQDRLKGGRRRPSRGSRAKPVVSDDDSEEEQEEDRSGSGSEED
experimental protocol: SMARCA4 Western blot degradation in MV4-11 cells
Assay type: cell-based
measurement setup: MV4-11 cells, 24 h; read-out: SMARCA4 MSD MV411 degradation 24 h: Mean external-Abs DC50
measured quantity: DC50

Cc1ncsc1-c1ccc(CNC(=O)[C@@H]2C[C@@H](O)CN2C(=O)[C@@H](NC(=O)[C@H]2CCC3(CC2)C[C@H](N2CCC(c4ccc(N5CCN6c7cc(-c8ccccc8O)nnc7NC[C@H]6C5)nc4)CC2)C3)C(C)(C)C)cc1 (some centres unmarked) [I-148] tested on SMARCA4 (Homo sapiens, UniProt P51532) gave DC50: > 100 nM

C#Cc1ccc(CNC(=O)[C@@H]2C[C@@H](O)CN2C(=O)[C@@H](NC(=O)[C@H]2CCC3(CC2)C[C@H](N2CCC(N4CCC(N5CCN6c7cc(-c8ccccc8O)nnc7NC[C@H]6C5)CC4)CC2)C3)C(C)(C)C)c(OC)c1 (some centres unmarked) [I-178] tested on SMARCA4 (Homo sapiens, UniProt P51532) gave DC50: > 100 nM

C#Cc1cc(F)c(CNC(=O)[C@@H]2C[C@@H](O)CN2C(=O)[C@@H](NC(=O)N2CC3(CC(N4CCC(c5cnc(N6CCc7[nH]c8nnc(-c9ccccc9O)cc8c7[C@H]6C)nc5)CC4)C3)C2)C(C)(C)C)cc1F [I-403] tested on SMARCA4 (Homo sapiens, UniProt P51532) gave DC50: > 100 nM

C#Cc1ccc(CNC(=O)[C@@H]2C[C@@H](O)CN2C(=O)[C@@H](NC(=O)[C@H]2CCC3(CC2)C[C@H](N2CCC(c4cnc(N5CCN6c7cc(-c8ccccc8O)nnc7NC[C@H]6C5)nc4)CC2)C3)C(C)(C)C)cc1 (single isomer, unassigned) [I-26] tested on SMARCA4 (Homo sapiens, UniProt P51532) gave DC50: > 100 nM
